test: Half life in mouse at 3 mg/kg, iv by LC-MS/MS analysis; type: ADME, organism-based; settings: in vivo
Parameter Measured: half-life (h)
Give the value, in units of h, as a plain number.

Reported half-life for `COCCN[C@H]1CC[C@H](Nc2cc(-c3csc(NCC4(C#N)CCOCC4)n3)c(Cl)cn2)CC1` was 1.72

----------
assay: Tmax in mouse at 3 mg/kg, iv by LC-MS/MS analysis; format: ADME, organism-based; settings: in vivo
Parameter Measured: Tmax
Answers without a unit are incomplete; give the number and then its unit.

Reported Tmax for `COCCN[C@H]1CC[C@H](Nc2cc(-c3csc(NCC4(C#N)CCOCC4)n3)c(Cl)cn2)CC1` was 4.98 min

----------
test: Cmax in mouse at 3 mg/kg, iv by LC-MS/MS analysis; format: ADME, organism-based; design: dose 3 mg/kg, route intravenous; conditions: in vivo
Parameter Measured: Cmax (ng/mL)
Give the value, in units of ng/mL, as a plain number.

Reported Cmax for `COCCN[C@H]1CC[C@H](Nc2cc(-c3csc(NCC4(C#N)CCOCC4)n3)c(Cl)cn2)CC1` was 573

----------
assay: AUC (0 to t) in beagle dog at 10 mg/kg, po by LC-MS/MS analysis; format: ADME, organism-based, Canis lupus familiaris; conditions: in vivo
Parameter Measured: AUC(0-t)
Answers without a unit are incomplete; give the number and then its unit.

Reported AUC(0-t) for `COCCN[C@H]1CC[C@H](Nc2cc(-c3csc(NCC4(C#N)CCOCC4)n3)c(Cl)cn2)CC1` was 3.94 µg·h/mL

----------
experiment: AUC (0 to t) in Sprague-Dawley rat at 20 mg/kg, po by LC-MS/MS analysis; type: ADME, organism-based; details: in vivo
Parameter Measured: AUC(0-t)
Answers without a unit are incomplete; give the number and then its unit.

Reported AUC(0-t) for `COCCN[C@H]1CC[C@H](Nc2cc(-c3csc(NCC4(C#N)CCOCC4)n3)c(Cl)cn2)CC1` was 1780 ng·h/mL

----------
experiment: AUC (0 to t) in beagle dog at 2 mg/kg, iv by LC-MS/MS analysis; format: ADME, organism-based, Canis lupus familiaris; conditions: in vivo
Parameter Measured: AUC(0-t) (ng·h/mL)
Give the value, in units of ng·h/mL, as a plain number.

Reported AUC(0-t) for `COCCN[C@H]1CC[C@H](Nc2cc(-c3csc(NCC4(C#N)CCOCC4)n3)c(Cl)cn2)CC1` was 2010

----------
assay: Cmax in beagle dog at 2 mg/kg, iv by LC-MS/MS analysis; type: ADME, organism-based, Canis lupus familiaris; set-up: dose 2 mg/kg, route intravenous; conditions: in vivo
Parameter Measured: Cmax
Answers without a unit are incomplete; give the number and then its unit.

Reported Cmax for `COCCN[C@H]1CC[C@H](Nc2cc(-c3csc(NCC4(C#N)CCOCC4)n3)c(Cl)cn2)CC1` was 0.414 µg/mL

----------
experiment: MRT (0 to t) in beagle dog at 2 mg/kg, iv by LC-MS/MS analysis; format: ADME, organism-based, Canis lupus familiaris; conditions: in vivo
Parameter Measured: MRT last
Answers without a unit are incomplete; give the number and then its unit.

Reported MRT last for `COCCN[C@H]1CC[C@H](Nc2cc(-c3csc(NCC4(C#N)CCOCC4)n3)c(Cl)cn2)CC1` was 9.36 h
